Test: yeast display, Sf9 membrane polyspecificity reagent, FACS + sequencing; frameworks hold sequencing errors
reported property: polyreactivity (PSR sort gate)

{"residue string": "QVQLVESGGGLVQAGGSLRLSCAASGRTLYNYAKGWYRQAPGKERELDASITWSGGSTYYADSVKGRFTISRDYANNTVYLQMNSLKPEDTAVYYCAAESSPGTFVRYGYRRYYYWGQGTQVTVSS", "polyreactivity (PSR sort gate)": "low polyreactivity"}
{"residue string": "QVQLVESGGGLVQAGGSLRLSCAASGYIFVIYAMGRYRQAPGKERELVAAITDGGDNTYYADSVKGRFTISRDNAKNTVYLHMNSLKPEDTAVYYCAADVYLPIAAWEGSLEYYYWGQGTQVTVSS", "polyreactivity (PSR sort gate)": "high polyreactivity"}
{"residue string": "QVQLVESGGGLVQAGGSLRLSCAASGSTFSYNDMGWYRQAPGKERELVAAISSGGSTKYADSVKGRFTISRDNAKNTVYLQMNSLKPEDTAVYYCNVDVKGRPTFWSPFGRFDYWGQGTQVTVSS", "polyreactivity (PSR sort gate)": "high polyreactivity"}
{"residue string": "QVQLVESGGGLVQAGGSLRLSCAASGNIFSYYAIGSYRHAPRKEREFVAANDWNGGTTYYADSVKGRFTISRDNAKNTVYLQMNSLKPEDTAVYYCAAEYGTWYIPEGEYWGQGTQVTVSS", "polyreactivity (PSR sort gate)": "high polyreactivity"}
{"residue string": "QVQLVESGGGLVQAGGSLRLSCAASGSTFTYNAMGWYRQAPGKERELVAAISSDGRTYYADSVKGRFTISRDNAKNTVYLQMNSLKPEDTAVYYCAAYFSGLTYGYYVAGYDYWGQGTQVTVSS", "polyreactivity (PSR sort gate)": "low polyreactivity"}

Problem: Item under review: "QDQLVESGGGLVQAGGSLRLSCAASGLIFRIYAMGWYRQAAGKERELVAAITSGGTSTSYADSVKGRFSISRDNAKNTVYLQMNSLKPEDTAVYYCNARWSDRVRIGLDYWGQGTQVTVSS" . Reported polyreactivity (PSR sort gate)?
Solution: high polyreactivity

Problem: Item under review: "QGQLVESGGGLVQAGGSLRLSCAASGRTFWYYTIGWYRQAPGKERELVAAISSGGRTNYADSVKGRFTISRDNAKNPVYLQMNSLKPEDTAVYYCASSRYYKYVERDYWGQGTQVTVSS" . Reported polyreactivity (PSR sort gate)?
Solution: high polyreactivity

Problem: Item under review: "QVQLVESGGGLVQAGGSLRLSCAASGSTFYNNAMGWYRQAPGKEREFVAAIRYRGGSTYYADSVKGRFTISRDNAKNTVYLQMNSLKPEDTAVYYCAADQGVYRTYWVDYWGQGTQVTVSS" . Reported polyreactivity (PSR sort gate)?
Solution: high polyreactivity

Problem: Item under review: "QVQLVESGGGLVQAGGSLRLSCAASGRTFGYYAMGWYRQAPGKERELVAAISRSGGSTYYADSVKGRFTISRDNAKNTVYLQMNSLKPEDTAVYYCAVKGYVKSDYWGQGTQVTVSS" . Reported polyreactivity (PSR sort gate)?
Solution: high polyreactivity

Problem: Item under review: "QVQLVESGGGLVQAGGSLRLSCDASGSIFVKNAMGWYRQAPGKERELVAVITIRTATTYYADSVKGRFTISRDNAKNTVYLQMNSLKPEDTAVYYCASAKRQRGYLQREGNYWGQGTQVTVSS" . Reported polyreactivity (PSR sort gate)?
Solution: low polyreactivity

Problem: Item under review: "QVQLVESGRGIVQAGGSLRLSCAASGSIFWLYAMGWYRQAPGKERELVAAISWSGTSTNYADSVKGRFTISRDNAKNTVYFQMNSLKPEDTAVYYCAKRWYNQKLFGYEEEYDYWGQGTQVTVSS" . Reported polyreactivity (PSR sort gate)?
Solution: low polyreactivity

Problem: Item under review: "QVQLVESGGGLVQAGGSLRLSCPASGSIFSLNAMGWYRQAPGKERELVAGISWSGGSTYYADSVKGRFTISRDNAKNTVYLQMNSLKPEDTAVYYCAARRYYPYISSGPYYYWGQGTQVTVSS" . Reported polyreactivity (PSR sort gate)?
Solution: high polyreactivity

Problem: Item under review: "QGQLVESGGGLVQAGGSLRLSCAASGLIFVWYAMGWYRQARGKERELVAAISWSGGSTYYADSVKGRFTISRDNAKNTVYLQMNSLKPEDTAVYYCATDPYGYSYLLVDYNYWGQGTQVTVSS" . Reported polyreactivity (PSR sort gate)?
Solution: low polyreactivity
